Values from paper PMC6427567

LE (Ligand Efficiency) reference
biological target: BRD4-full length: recombinant human bromodomain containing protein 4 (bromodomain 1 and 2; aa 2–1362) (Homo sapiens, UniProt O60885); construct: (bromodomain 1 and 2; aa 2–1362; Genbank Accesstion # NM_058243); host or cells: Sf9 insect cells; assay: BRD4 binding assay (AlphaScreen); conditions: LE = 1.4 (pIC50/heavy atoms)

Compound	LE (Ligand Efficiency)
O=c1ccc2cc(NS(=O)(=O)c3ccc4c(c3)CCO4)ccc2o1 [Compound 16]	0.28
CCCCS(=O)(=O)Nc1ccc2oc(=O)ccc2c1 [Compound 5]	0.33
CCCS(=O)(=O)Nc1ccc2oc(=O)ccc2c1 [Compound 4]	0.34
N#Cc1cccc(S(=O)(=O)Nc2ccc3oc(=O)ccc3c2)c1 [Compound 9]	0.32
O=c1ccc2cc(NS(=O)(=O)c3ccc(Cl)cc3)ccc2o1 [Compound 6]	0.34
O=c1ccc2cc(NS(=O)(=O)c3ccccc3)ccc2o1 [Compound 1]	0.35
O=c1ccc2cc(NS(=O)(=O)c3ccccc3Cl)ccc2o1 [Compound 10]	0.36
COc1ccc(S(=O)(=O)Nc2ccc3oc(=O)ccc3c2)cc1 [Compound 7]	0.33
COc1ccccc1S(=O)(=O)Nc1ccc2oc(=O)ccc2c1 [Compound 11]	0.37
O=c1ccc2cc(NS(=O)(=O)c3cccs3)ccc2o1 [Compound 14]	0.35
